Origin of the recorded values: patent US20260184663A1

Below is a list of entries, each paired with its recorded inhibition at 10 µM value.
# System: B16F10 (malignant melanoma)
# method.notes: Antiproliferative activity (CCK-8 cell viability), B16F10
# Assay type: cell-based
# condition.notes: Mus musculus, B16-F10, Compound concentration: 10 μM, 72 h, read-out: Antiproliferative activity in cancerous cells, B16F10 (inhibition of cell growth)

compound | inhibition at 10 µM
CC1=C(CC(=O)O)c2cc(I)ccc2/C1=C/c1ccc(COCc2ccc(F)cc2)cc1 [E18] | ≥ 50%
O=C(O)CC1=C(Cc2ccc(Oc3ccc(F)cc3)cc2)/C(=C/c2ccc(Oc3ccc(F)cc3)cc2)c2ccc(F)cc21 [A107] | ≥ 50%
CC1=C(CC(=O)O)c2c(F)cc(F)cc2/C1=C\c1cccc(C(F)(F)F)c1 [D6] | < 30%
CC1=C(CC(=O)O)c2cc(F)ccc2/C1=C\c1ccc(CN(CCc2ccccc2)c2ccccc2)cc1 [B19] | ≥ 50%
CCc1ccc2c(c1)C(CC(=O)O)=C(C)/C2=C/c1ccc(COc2ccccc2)cc1 [B5] | ≥ 50%
COc1cc(Oc2ccc(F)cc2)ccc1/C=C1/C(C)=C(CC(=O)O)c2cc(F)ccc21 [C51] | ≥ 50%
CC1=C(CC(=O)O)c2cc(Br)ccc2/C1=C/c1ccc(Oc2ccc(Cl)cc2)cc1 [E27] | ≥ 50%
O=C(O)CC1=C(Cc2ccc(Oc3ccc(F)cc3)cc2)/C(=C/c2ccc(Cc3ccc(F)cc3)cc2)c2ccc(F)cc21 [A112] | ≥ 50%
O=C(O)CC1=C(Cc2ccc(Oc3ccc(F)cc3)cc2)/C(=C/c2ccc(N3CCOCC3)cc2)c2ccc(F)cc21 [A102] | ≥ 50%
CC1=C(CC(=O)O)c2cccc(F)c2/C1=C\c1cccc(COc2ccccc2)c1 [B9] | ≥ 50%
O=C(O)CC1=C(Cc2ccc(Oc3ccc(F)cc3)cc2)/C(=C/c2cccc(C(F)(F)F)c2)c2ccc(F)cc21 [A109] | ≥ 50%
CC1=C(CC(=O)O)c2cc(F)ccc2/C1=C\c1ccc(Oc2ccc(Cl)cc2Cl)cc1 [C66] | ≥ 50%
COc1ccc2c(c1)/C(=C\c1cccc(COc3ccc(F)cc3)c1)C(C)=C2CC(=O)O [B22] | < 30%
CC1=C(CC(=O)O)c2cc(Cl)ccc2/C1=C\c1cccc(Oc2ccc(C(F)(F)F)cc2)c1 [C105] | ≥ 50%
CC1=C(CC(=O)O)c2cc(F)ccc2/C1=C\c1ccc(CO)cc1 [D11] | < 30%
CC1=C(CC(=O)O)c2cc(F)ccc2/C1=C\c1ccc(CCc2ccc(F)cc2)cc1 [B145] | < 30%
CC1=C(CC(=O)O)c2cc(Cl)ccc2/C1=C\c1ccc(COc2ccc(C(F)(F)F)cc2)cc1 [B58] | ≥ 50%
O=C(O)CC1=C(Cc2ccc(Oc3ccc(F)cc3)cc2)/C(=C/c2ccc(F)cc2)c2ccc(F)cc21 [A105] | ≥ 50%
CC1=C(CC(=O)O)c2cc(F)ccc2/C1=C\c1ccc(Oc2ccc(Cl)c(Cl)c2)cc1 [C49] | ≥ 50%
CCOCc1ccc(/C=C2/C(C)=C(CC(=O)O)c3cc(F)ccc32)cc1 [D10] | 30 to 50%
CC1=C(CC(=O)O)c2cc(Cl)ccc2/C1=C\c1ccc(COCc2ccc(Cl)cc2)cc1 [B115] | ≥ 50%
CCc1ccc(Oc2ccc(/C=C3\C(C)=C(CC(=O)O)c4cc(Cl)ccc43)cc2)cc1 [E31] | ≥ 50%
O=C(O)CC1=C(Cc2ccc(Oc3ccc(F)cc3)cc2)/C(=C/C2CC2)c2ccc(F)cc21 [A106] | ≥ 50%
O=C(O)CC1=C(CC2CCCC2)/C(=C/c2ccc(Oc3ccc(F)cc3)cc2)c2ccc(F)cc21 [C7] | ≥ 50%
CCCC1=C(CC(=O)O)c2cc(F)ccc2/C1=C\c1cccc(Oc2ccccc2)c1 [C22] | ≥ 50%
CC1=C(CC(=O)O)c2cc(F)ccc2/C1=C/c1ccc(Oc2ccc(Cl)cc2)cc1 [E42] | 30 to 50%
CC1=C(CCOC(=O)N(C)N)c2cc(F)ccc2/C1=C\c1ccc(Oc2ccc(F)cc2)cc1 [A205] | < 30%
CC1=C(CC(=O)O)c2cc(C)ccc2/C1=C\c1ccc(CCc2ccccc2)cc1 [B147] | ≥ 50%
CC1=C(CC(=O)O)c2cc(Br)ccc2/C1=C\c1ccc(Oc2ccc(F)cc2)cc1 [C86] | 30 to 50%
CCCC1=C(CC(=O)O)c2cc(F)ccc2/C1=C\c1ccc(COc2ccccc2)cc1 [A4] | ≥ 50%
CCc1ccc2c(c1)C(CC(=O)O)=C(C)/C2=C/c1cccc(COc2ccc(F)cc2)c1 [B71] | ≥ 50%
CCc1ccc2c(c1)/C(=C\c1ccc(COc3ccccc3)cc1)C(C)=C2CC(=O)O [B48] | 30 to 50%
CC1=C(CC(=O)O)c2cc(C)ccc2/C1=C\c1ccc(CCCc2ccc(Cl)cc2)cc1 [B123] | ≥ 50%
CC1=C(CC(=O)O)c2cc(F)ccc2/C1=C/c1ccc(Oc2ccc(Cl)cc2F)cc1 [E24] | ≥ 50%
